- targetEntity: HLA-A*03:01
- testProtocol: IEDB peptide-MHC binding, purified MHC/competitive/fluorescence; filed as Kd, often an IC50 or EC50 that approximates it; bounds were set here for any values at or beyond the usual limits of such assays
- testSettings: source organism: Giardia lamblia ATCC 50803
endpoint: Kd (µM)
Please reply with the bare figure in µM and do not write the unit itself.

Which measured Kd belongs to `RCYPGYTLK` , tested on HLA-A*03:01?
0.0623

* * *

- targetEntity: HLA-A*03:01
- testProtocol: IEDB peptide-MHC binding, purified MHC/direct/fluorescence; filed as Kd, often an IC50 or EC50 that approximates it; bounds were set here for any values at or beyond the usual limits of such assays
- testSettings: source organism: Bacillus anthracis str. A0488
endpoint: Kd

So what's the measured Kd for this one? `WDAYIPHYV`
≥ 20 µM
